experiment: NCI Yeast Anticancer Drug Screen. Data for the cln2 rad14 strain (AID 165);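 also: 0% = growth equal to vehicle treated cultures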; conditions: S. cerevisiae cln2 rad14 strain, at 50.0 µM (retest, dose inferred, filed as 5.0)
The panel holds about 79,000 compounds, 15% with a hit somewhere; the sample as a whole holds those more often. The source made the active and inactive calls. Rule as the data show it: active = growth inhibition above about 70%; inactive = the rest.
Possible outcomes: Yes for active, No for inactive

[
  {
    "compound": "O=C(CCCO)N/N=C\\c1ccc([N+](=O)[O-])s1",
    "group": "No"
  },
  {
    "compound": "CCCCOC(=O)C(C)OC(=O)NNc1ccccc1 (stereo unspecified)",
    "group": "No"
  },
  {
    "compound": "Cc1ccc(OC/C=C/c2ccc(Cl)cc2)cc1",
    "group": "Yes"
  },
  {
    "compound": "O=C1C(=Cc2ccccc2O)N=C(c2ccccc2)N1n1c(-c2ccccc2)nc2ccccc2c1=O",
    "group": "No"
  },
  {
    "compound": "[O-]/[N+]1=[N+](\\[O-])c2ccccc2CCc2ccccc21",
    "group": "No"
  },
  {
    "compound": "COc1ccc(CCCCC(=O)O)cc1O",
    "group": "No"
  }
]

###

assay: NCI Yeast Anticancer Drug Screen. Data for the mlh1 rad18 strain (AID 175); settings: S. cerevisiae mlh1 rad18 strain growth inhibition; at 5.0 µM (retest, dose inferred, filed as 0.5); active compounds read high
This is part of a sample that, as a whole, favours compounds with a hit. Of some 79,000 tested, about 15% had one in any assay. Where a SMILES comes first, the peptide text is derived from it. The star is where a group is joined. X7 = Clc1c(Cl)c(Cl)c(O*)c(Cl)c1Cl; Boc = CC(C)(C)OC(=O)*; OBn = c1ccc(CO*)cc1; Bn = c1ccc(C*)cc1
growth inhibition overview

[
  {
    "molecule": "BrCc1ccc([Si](c2ccccc2)(c2ccccc2)c2ccc(CBr)cc2)cc1",
    "growth inhibition [%]": 3
  },
  {
    "molecule": "CC(C)CC(NC(=O)C(CCC(=O)OCc1ccccc1)NC(=O)OC(C)(C)C)C(=O)NC(COCc1ccccc1)C(=O)NC(Cc1ccccc1)C(=O)Oc1c(Cl)c(Cl)c(Cl)c(Cl)c1Cl (centres undefined) (Boc-E(OBn)LS(Bn)F-X7; configuration not given here)",
    "growth inhibition [%]": 42
  },
  {
    "molecule": "CCOC(=S)SSC(=S)NCCNC(=S)SSC(=S)OCC",
    "growth inhibition [%]": 11
  },
  {
    "molecule": "CCCCCCCCCCCCN(CCO)CCO",
    "growth inhibition [%]": 41
  }
]

###

assay: NCI Yeast Anticancer Drug Screen. Data for the sgs1 mgt1 strain (AID 161);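 also: 0% = growth of cultures given vehicle only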; conditions: S. cerevisiae sgs1 mgt1 strain, at 50.0 µM
Compounds without any hit were thinned out: in the full panel of roughly 79,000, 15% have a hit. Active and inactive are the calls of the source. Cut-off read from the data, not from the text of the source: active = growth inhibition above about 70%; inactive = the rest.
Outcome codes: active, inactive

[
  {
    "molecule": "CN(C)N=Nc1ccc(NC(N)=O)cc1",
    "group": "inactive"
  },
  {
    "molecule": "O=C1OC(=O)c2ccc([N+](=O)[O-])c3cccc1c23",
    "group": "active"
  },
  {
    "molecule": "O=[N+]([O-])c1cccc(Cl)c1C(Nc1nncs1)Nc1nncs1",
    "group": "active"
  },
  {
    "molecule": "CC(=O)OC(c1ccc(Cl)cc1)c1ccc(Cl)cc1",
    "group": "inactive"
  },
  {
    "molecule": "O=C1C=CC(=O)N1Cc1ccccc1",
    "group": "active"
  },
  {
    "molecule": "Cc1c[nH]c2nc(C)n(-c3ccccc3)c(=N)c12",
    "group": "inactive"
  },
  {
    "molecule": "Cn1c2nc(-[n+]3ccccc3)nc-2c([O-])n(C)c1=O",
    "group": "inactive"
  },
  {
    "molecule": "c1ccc(OCCCOc2ccccc2)cc1",
    "group": "inactive"
  },
  {
    "molecule": "C/C=C/c1cc2c(cc1O)CC[C@@H]1[C@@H]2CC[C@]2(C)[C@@H](O)CC[C@@H]12",
    "group": "active"
  },
  {
    "molecule": "Cn1cnc([N+](=O)[O-])c1Sc1nc2ccccc2s1",
    "group": "active"
  },
  {
    "molecule": "CC1C(c2ccc(Cl)cc2)c2cc3c(cc2OC1N1CCOCC1)OCO3 (configuration not stated)",
    "group": "active"
  },
  {
    "molecule": "Ic1[nH]c(I)c(I)c1I",
    "group": "active"
  },
  {
    "molecule": "COc1ccc(N=Nc2ccc(O)cc2)cc1",
    "group": "active"
  },
  {
    "molecule": "CCCCCCCCCCCCN(CCO)CCO",
    "group": "active"
  },
  {
    "molecule": "O=C(CCl)NC(=O)N(/N=C/c1ccco1)c1ccccc1",
    "group": "inactive"
  },
  {
    "molecule": "COC(=O)CNC(=O)C(F)(F)F",
    "group": "active"
  },
  {
    "molecule": "O=C1C=C(c2ccccc2)OC(c2ccccc2)C1 (configuration not stated)",
    "group": "inactive"
  },
  {
    "molecule": "Cc1[nH]nc(C(=O)N/N=C/c2ccccc2Cl)c1N=NN(C)C",
    "group": "active"
  },
  {
    "molecule": "COc1ccc(C2c3cc4c(cc3OC(O)C2C)OCO4)c(OC)c1 (configuration not stated)",
    "group": "active"
  },
  {
    "molecule": "CC(C)C(C)(C(=O)O)C(C)C",
    "group": "inactive"
  },
  {
    "molecule": "NCCOB1c2ccccc2Cc2ccccc21",
    "group": "inactive"
  },
  {
    "molecule": "O=[N+]([O-])c1ccc(/C=N/O)o1",
    "group": "active"
  },
  {
    "molecule": "Nc1nc(-c2cccnc2)nc(N)c1N=O",
    "group": "active"
  },
  {
    "molecule": "C=C(C)CCC(=C)C",
    "group": "inactive"
  },
  {
    "molecule": "COC12C=CC(CC1)c1c2c(O)c2ccncc2c1O (configuration not stated)",
    "group": "inactive"
  },
  {
    "molecule": "O=[N+]([O-])c1ccc(Cl)cc1C(Nc1nncs1)Nc1nncs1",
    "group": "active"
  },
  {
    "molecule": "CCOC(=O)C(NNc1ccccc1)C(c1ccccc1)[P+](c1ccccc1)(c1ccccc1)c1ccccc1 (configuration not stated)",
    "group": "active"
  },
  {
    "molecule": "COC(=O)c1nnn(-c2ccc(Cl)cc2Cl)c1C(=O)c1ccc(Cl)c(Cl)c1",
    "group": "active"
  },
  {
    "molecule": "C[n+]1c(-c2ccc(/C=N/Nc3ccnc(N/N=C/c4ccc(-c5cn6ccccc6[n+]5C)cc4)n3)cc2)cn2ccccc21",
    "group": "active"
  },
  {
    "molecule": "OCc1c2c(cc3c1CC1(C3)Cc3cc4c(c(CO)c3C1)CCC4)CCC2",
    "group": "inactive"
  },
  {
    "molecule": "CCC1CCC2=C(C1)C(=O)c1ccccc1C2=O (configuration not stated)",
    "group": "inactive"
  },
  {
    "molecule": "Cc1cc(NC(=S)SCc2ccc3c(c2)OCO3)ccc1Br",
    "group": "active"
  },
  {
    "molecule": "NNC(=S)N/N=C(/C(=O)Nc1ccc(Cl)c(Cl)c1)C(C1OC(=O)c2ccccc21)[N+](=O)[O-] (configuration not stated)",
    "group": "inactive"
  },
  {
    "molecule": "O=c1oc(-c2ccc(Cl)c([N+](=O)[O-])c2)ns1",
    "group": "active"
  },
  {
    "molecule": "NC(c1ccccc1)P(=O)(OCc1ccc([N+](=O)[O-])cc1)OCc1ccc([N+](=O)[O-])cc1 (configuration not stated)",
    "group": "active"
  },
  {
    "molecule": "O=[N+]([O-])c1ccc(C=NC2CCCCC2)c([N+](=O)[O-])c1",
    "group": "inactive"
  },
  {
    "molecule": "CC(CCC(=O)O)[C@H]1CCC2[C@@H]3CC(O)[C@@H]4CC(O)CC[C@]4(C)C3CC[C@@]21C (some centres not stated)",
    "group": "active"
  },
  {
    "molecule": "C=C1CC(O)C2C(C[Se]c3ccccc3)C(=O)O[C@@H]2C2C(=C)[C@@H](O)CC12 (some centres not stated)",
    "group": "inactive"
  },
  {
    "molecule": "CCN(CC)CCCCCCNc1cc(Cl)cc2cccnc12",
    "group": "active"
  },
  {
    "molecule": "Cc1cc(C)n2nc(N)c(C#N)c2c1C#N",
    "group": "inactive"
  },
  {
    "molecule": "CCOC(=O)C(CC(=O)O)=C(c1ccccc1)c1ccccc1",
    "group": "inactive"
  },
  {
    "molecule": "C1=C(c2ccccc2)C(=Nc2ccccc2)SC1=Nc1ccccc1",
    "group": "active"
  },
  {
    "molecule": "COC(=O)c1nc(=S)[nH]c(C(=O)OC)c1C(=O)c1ccc([N+](=O)[O-])cc1",
    "group": "active"
  },
  {
    "molecule": "CC1=C(C(=O)OCCO[N+](=O)[O-])C(c2ccccc2[N+](=O)[O-])C(C(=O)OC(C)C)=C(C)N1 (configuration not stated)",
    "group": "active"
  },
  {
    "molecule": "CC1CC(OC(=O)Nc2ccccc2)CC(C)(C)C1 (configuration not stated)",
    "group": "active"
  },
  {
    "molecule": "C=[CH][Sn]([CH]=C)([S]c1cccc2cccnc12)[S]c1cccc2cccnc12",
    "group": "active"
  },
  {
    "molecule": "CCCCCCCCCCCCCCCC(=O)NCCN(C)C",
    "group": "inactive"
  }
]
